target: UniProt P10415
Sequence (P10415 whole entry): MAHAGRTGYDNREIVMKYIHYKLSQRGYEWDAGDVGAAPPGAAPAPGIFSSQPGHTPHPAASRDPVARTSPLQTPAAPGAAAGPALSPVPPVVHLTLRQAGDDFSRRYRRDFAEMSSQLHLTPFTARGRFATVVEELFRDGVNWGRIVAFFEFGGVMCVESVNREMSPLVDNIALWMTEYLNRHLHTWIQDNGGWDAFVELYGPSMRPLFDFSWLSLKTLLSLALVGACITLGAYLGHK
READOUT_NAME: IC50 (nM)

a = O=C(NS(=O)(=O)c1ccc(N[C@H](CCN2CCOCC2)CSc2ccccc2)c(S(=O)(=O)C(F)(F)F)c1)c1ccc(N2CCC([S@+]([O-])c3ccccc3-c3ccc(Cl)cc3)CC2)cc1
b = O=C(NS(=O)(=O)c1ccc(N[C@H](CCN2CCOCC2)CSc2ccccc2)c(S(=O)(=O)C(F)(F)F)c1)c1ccc(N2CCC([S@@+]([O-])c3ccccc3-c3ccc(Cl)cc3)CC2)cc1
c = O=C(NS(=O)(=O)c1ccc(N[C@H](CCN2CCOCC2)CSc2ccccc2)c(S(=O)(=O)C(F)(F)F)c1)c1ccc(N2CCN(Cc3cn[nH]c3-c3ccc(Cl)cc3)CC2)cc1
input: Order the 3 listed items from lowest to highest according to IC50. Dear reader, please state the labels in the requested order.
output: b, c, a
